Target: HGFR (Homo sapiens, UniProt P08581)
Construct: purchased Upstate 14-526
Sequence (P08581 974-1390 limits assumed): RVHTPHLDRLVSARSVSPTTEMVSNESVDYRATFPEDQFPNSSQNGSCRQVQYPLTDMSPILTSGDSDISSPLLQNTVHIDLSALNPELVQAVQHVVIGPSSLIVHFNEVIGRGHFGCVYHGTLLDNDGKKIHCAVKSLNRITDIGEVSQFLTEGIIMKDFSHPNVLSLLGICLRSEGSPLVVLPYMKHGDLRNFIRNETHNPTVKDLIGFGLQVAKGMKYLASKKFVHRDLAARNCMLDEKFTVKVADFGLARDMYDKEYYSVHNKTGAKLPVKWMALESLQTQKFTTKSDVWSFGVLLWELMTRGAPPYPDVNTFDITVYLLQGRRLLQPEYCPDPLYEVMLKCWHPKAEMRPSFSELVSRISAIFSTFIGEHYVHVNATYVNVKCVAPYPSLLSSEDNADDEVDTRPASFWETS
Test: HGFR continuous-coupled spectrophotometric assay (tyrosine kinase activity on Met-2 substrate peptide)
Type: biochemical
Settings: HGFR 50 nM, Met-2 peptide 0.5 mM, ATP 300 μM, 37° C., absorbance 340 nm; read-out: Ki
OBSERVABLE: Ki (nM)

Worked cases, answers included:
{"COMPOUND": "CCc1cnc2nnn(Cc3ccc4ncccc4c3)c2n1 [Example 52]", "MEASUREMENT TARGET": "HGFR (Homo sapiens, UniProt P08581)", "UNIT LABEL": "nM", "Ki": 88}
{"COMPOUND": "CC(N)c1cnc2nnn(Cc3ccc4ncccc4c3)c2n1 (stereo not drawn) [Example 183]", "MEASUREMENT TARGET": "HGFR (Homo sapiens, UniProt P08581)", "UNIT LABEL": "nM", "Ki": 837}
{"COMPOUND": "CNCC1(O)CCN(c2cnc3nnn(Cc4ccc5ncccc5c4)c3n2)C1 (stereo not drawn) [Example 155]", "MEASUREMENT TARGET": "HGFR (Homo sapiens, UniProt P08581)", "UNIT LABEL": "nM", "Ki": 43}
{"COMPOUND": "Cc1cnc2nnn(C(C)c3ccc4c(c3)OCCO4)c2n1 (stereo not drawn) [Example 180]", "MEASUREMENT TARGET": "HGFR (Homo sapiens, UniProt P08581)", "UNIT LABEL": "nM", "Ki": 412}
{"COMPOUND": "CC(C)(O)CNc1cnc2nnn(Cc3cc4cccnc4cc3F)c2n1 [Example 172]", "MEASUREMENT TARGET": "HGFR (Homo sapiens, UniProt P08581)", "UNIT LABEL": "nM", "Ki": 4}
{"COMPOUND": "c1cnc2ccc(Cn3nnc4ncc(-c5ccn[nH]5)nc43)cc2c1 [Example 69]", "MEASUREMENT TARGET": "HGFR (Homo sapiens, UniProt P08581)", "UNIT LABEL": "nM", "Ki": 3}
{"COMPOUND": "c1cnc2ccc(Cn3nnc4ncc(N5CCNCC5)nc43)cc2c1 [Example 33]", "MEASUREMENT TARGET": "HGFR (Homo sapiens, UniProt P08581)", "UNIT LABEL": "nM", "Ki": 10}

I. CCN(CC)c1cnc2nnn(Cc3ccc4ncccc4c3)c2n1 [Example 160]
II. CN(C)C(=O)CCNc1cnc2nnn(Cc3ccc4ncccc4c3)c2n1 [Example 121]
Task: Kindly identify the item with the lower Ki figure among these two: I and II To answer, give the label that identifies your chosen option.
Output: I

----------
Target: HGFR (Homo sapiens)
Construct: purchased Upstate 14-526
Test: HGFR continuous-coupled spectrophotometric assay (tyrosine kinase activity on Met-2 substrate peptide)
Type: biochemical
Conditions: HGFR 50 nM, Met-2 peptide 0.5 mM, ATP 300 μM, 37° C., absorbance 340 nm; read-out: Ki
pKi: −log10 of the molar value.
OBSERVABLE: pKi

{"COMPOUND": "CCOC(=O)c1cnn(-c2cnc3nnn(Cc4ccc5ncccc5c4)c3n2)c1", "pKi": 7.40}

1. CC(c1ccc2c(c1)OCCO2)n1nnc2ncc(-c3cnn(C)c3)nc21 (stereo in doubt) [Example 60]
2. NCCNC(=O)c1ccc(-c2cnc3nnn(Cc4ccc5ncccc5c4)c3n2)cc1
3. OCCC1(CO)CCN(c2cnc3nnn(Cc4ccc5ncccc5c4)c3n2)C1 (stereo not shown)
Task: I would appreciate it if you could sort these 3 compounds by pKi, starting from the smallest number. Field: ranking. Enter the labels in the order requested.
Output: 1, 3, 2
(1: 7.52, 3: 8.05, 2: 8.40)
